experiment: Cytotoxicity against HUVEC cells assessed as inhibition of cell growth incubated in presence of 3-cyclopropyl-1-(3-{5-[(morpholin-4-yl)methyl]-1H-1,3-benzodiazol-2-yl}-1H-pyrazol-4-yl)urea; format: toxicity, cell-based; conditions: human
OBSERVABLE: pIC50
// pIC50: -log10(molar conc.)

## Task Please indicate pIC50 recorded for Cc1cnc(Nc2ccc(N3CCNCC3)cc2)nc1Nc1cccc(S(=O)(=O)NC(C)(C)C)c1
## Result 5.75
